# assayed system: phosphorylated FGFR3 (SEQ ID NO: 5, amino acids 449 to 759) (Homo sapiens (Human), UniProt P22607)
# Sequence (P22607 449-759): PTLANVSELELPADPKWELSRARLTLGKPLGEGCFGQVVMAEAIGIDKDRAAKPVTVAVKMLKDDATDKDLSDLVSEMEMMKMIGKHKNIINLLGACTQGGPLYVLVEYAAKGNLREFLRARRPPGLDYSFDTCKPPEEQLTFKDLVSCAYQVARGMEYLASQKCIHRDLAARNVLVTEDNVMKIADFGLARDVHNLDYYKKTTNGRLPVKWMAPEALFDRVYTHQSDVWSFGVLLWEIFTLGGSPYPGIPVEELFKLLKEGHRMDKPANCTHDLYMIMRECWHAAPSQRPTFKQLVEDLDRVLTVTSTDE
endpoint: IC50 (nM)

As a guide, the following entries are already answered.
- molecule: "C=CC(=O)N[C@H]1C[C@H](C(=O)N2CCC(n3cc(-c4cc(OC)c5c(C#N)cnn5c4)cn3)CC2)C1"
  unit tag: "nM"
  IC50: 44
- molecule: "C=CS(=O)(=O)Nc1cccc(C(=O)N2CCC(n3cc(-c4cc(OC)c5c(C#N)cnn5c4)cn3)CC2)c1"
  unit tag: "nM"
  IC50: 1

1: C=CC(=O)Nc1cccc(C(=O)N2CC[C@@H](n3cc(-c4cc(OC)c5c(C#N)cnn5c4)cn3)C2)c1
2: COc1cc(-c2cnn(C3CCN(C(=O)C4CN(C(=O)C5=CCC5)C4)CC3)c2)cn2ncc(C#N)c12
// query Would you mind telling me which has the lower recorded IC50 between 1 and 2 ? Give the label under which the chosen entry appears.
// result 2
(2: 8 nM, 1: 18 nM)

* * *

# assayed system: phosphorylated FGFR3 (SEQ ID NO: 5, amino acids 449 to 759) (Homo sapiens (Human), UniProt P22607)
endpoint: IC50 (nM)

Would you please look over these solved cases?
- compound: "C=CC(=O)N1CC(C(=O)N2CCN(c3ncc(-c4cc(OC)c5c(C#N)cnn5c4)cc3C)CC2)C1 [Example 113]"
  meas value: 45
- compound: "C=CC(=O)N[C@H]1C[C@H](C(=O)N2CC[C@@H](n3cc(-c4cc(OC)c5c(C#N)cnn5c4)cn3)C2)C1 [Example 60]"
  meas value: 32

P: C=CC(=O)Nc1ccc(C(=O)N2CC[C@H](n3cc(-c4cc(OC)c5c(C#N)cnn5c4)cn3)C2)cc1C [Example 70]
Q: C=CC(=O)Nc1cccc(C(=O)N2CC[C@H](n3cc(-c4cc(OC)c5c(C#N)cnn5c4)cn3)C2)c1 [Example 67]
// query Select the item with the higher value of IC50 from the options P and Q listed. Please respond with the label that marks your chosen entry.
// result P

a: COc1cc(-c2cnn(C3CCN(C(=O)C4CN(C(=O)/C=C/CN(C)C)C4)CC3)c2)cn2ncc(C#N)c12 [Example 143]
b: C=CC(=O)N1CC(C(=O)N2CCC(n3cc(-c4cc(OC)c5c(C#N)cnn5c4)c(C)n3)CC2)C1 [Example 94]
// query Hey, which is lower on measured IC50, a or b ? In your reply, give the label of the chosen option.
// result a
(a: 2 nM, b: 18 nM)

A: COc1cc(-c2cnn(C3CCN(C(=O)C4CN(C(=O)/C=C/CBr)C4)CC3)c2)cn2ncc(C#N)c12 [Example 180]
B: C=CC(=O)N1CCC[C@H](C(=O)N2CC[C@H](n3cc(-c4cc(OC)c5c(C#N)cnn5c4)cn3)C2)C1 [Example 63]
C: C=CC(=O)N1CC(C)(C(=O)N2CCC(n3cc(-c4cc(OC)c5c(Cl)cnn5c4)cn3)CC2)C1 [Example 123]
D: C=CC(=O)Nc1ccc(C(=O)N2CC[C@@H](n3cc(-c4cc(OC)c5c(C#N)cnn5c4)cn3)C2)cc1 [Example 55]
// query Kindly order the items shown according to IC50, from the highest value down. Write the labels, ordered according to the request.
// result B, C, D, A

Data origin: patent US12180207B2
